minimum gelation concentration values by entry
experiment: Gelation test in solvents at room temperature; assay type: physicochemical; conditions: DMSO:H2O (1:1), room temperature

molecule	minimum gelation concentration, mg/mL
COC1OC2COC(c3ccccc3)OC2C(O)C1N(CC(=O)NC1CCCCC1)C(=O)c1ccc(Br)cc1 (centres unmarked)	20.0
CCOC(=O)CNC(=O)CN(C(=O)c1ccc(Br)cc1)C1C(OC)OC2COC(c3ccccc3)OC2C1O (centres unmarked)	10.0
COc1ccc(CN(CC(=O)NC2CCCCC2)C(=O)c2ccc(Br)cc2)cc1	5.0
C[C@H](c1ccccc1)N(CC(=O)NC1CCCCC1)C(=O)c1ccc(Br)cc1	20.0
CCOC(=O)CNC(=O)CN(Cc1ccc(OC)cc1)C(=O)c1ccc(Br)cc1	2.5
O=C(CN(Cc1ccccc1)C(=O)c1ccc([N+](=O)[O-])cc1)NC1CCCCC1	20.0
O=C(CN(Cc1ccccc1)C(=O)c1ccc(Br)cc1)NC1CCCCC1	10.0
C#CCCC(=O)N(CC(=O)NC1CCCCC1)Cc1ccccc1	20.0

* * *

assay: Gelation test in solvents at room temperature; type: physicochemical; conditions: EtOH:H2O (1:2), room temperature
value type: minimum gelation concentration (mg/mL)

compound	observed value
COC1OC2COC(c3ccccc3)OC2C(O)C1N(CC(=O)NC1CCCCC1)C(=O)c1ccc(Br)cc1 (centres unmarked) [Compound 25]	20.0
C#CCCC(=O)N(CC(=O)NC1CCCCC1)Cc1ccccc1 [Compound 15]	20.0
CCOC(=O)CNC(=O)CN(Cc1ccc(OC)cc1)C(=O)c1ccc(Br)cc1 [Compound 21]	2.8
CCOC(=O)CNC(=O)CN(C(=O)c1ccc(Br)cc1)C1C(OC)OC2COC(c3ccccc3)OC2C1O (centres unmarked) [Compound 26]	10.0
COC1OC2COC(c3ccccc3)OC2C(O)C1N(CC(=O)NC1CCCCC1)C(=O)c1ccccc1 (centres unmarked) [Compound 24]	20.0

* * *

assay: Gelation test in solvents at room temperature; format: physicochemical; set-up: key: I, insoluble; P, precipitating; S, soluble at ~20 mg/mL; G, gel at room temperature; number is minimum gelation concentration; conditions: Hexane, room temperature

compound	Gelation test result
CCOC(=O)CNC(=O)CN(C(=O)c1ccc(Br)cc1)C1C(OC)OC2COC(c3ccccc3)OC2C1O (centres unmarked) [Compound 26]	I
CC(=O)N(CC(=O)NC1CCCCC1)Cc1ccccc1 [Compound 14]	I^(a)
C#CCCC(=O)N(CC(=O)NC1CCCCC1)Cc1ccccc1 [Compound 15]	P^(b)
CCOC(=O)CNC(=O)CN(Cc1ccc(OC)cc1)C(=O)c1ccc(Br)cc1 [Compound 21]	I
COC1OC2COC(c3ccccc3)OC2C(O)C1N(CC(=O)NC1CCCCC1)C(=O)c1ccc(Br)cc1 (centres unmarked) [Compound 25]	P

* * *

experiment: Gelation test in solvents at room temperature; format: physicochemical; set-up: key: S, soluble (starting test at 20 mg/mL); I, insoluble; P, precipitate; G, stable gel, the numbers after G are preliminary MGCs in mg/mL; UG, slightly unstable gels or partial gels, concentrations are 20 mg/mL unless otherwise noted; conditions: DMSO:H2O 1:1; Table 3

compound	Gelation result
CCOC(=O)CNC(=O)CN(Cc1ccccc1)C(=O)c1ccc(C(=O)N(CC(=O)NCC(=O)OCC)Cc2ccccc2)cc1 [Compound 30]	P
COc1ccc(CN(CC(=O)NCC(=O)O)C(=O)c2ccc(Br)cc2)cc1 [Compound 42]	P
COC1OC(CO)C(O)C(O)C1N(CC(=O)NC1CCCCC1)C(=O)c1ccc(Br)cc1 (stereo not shown) [Compound 40]	G
O=C(O)CNC(=O)CN(Cc1ccccc1)C(=O)c1ccc(C(=O)N(CC(=O)NCC(=O)O)Cc2ccccc2)cc1 [Compound 43]	UG
CC1(C)OCC(CN(CC(=O)NC2CCCCC2)C(=O)c2ccc(Br)cc2)O1 (stereo not shown) [Compound 27]	G
O=C(CN(Cc1ccccc1)C(=O)c1ccc(C(=O)N(CC(=O)NC2CCCCC2)Cc2ccccc2)cc1)NC1CCCCC1 [Compound 29]	P
COc1ccc(CN(CC(=O)Nc2ccc(Oc3ccc(NC(=O)CN(Cc4ccc(OC)cc4)C(=O)c4ccc(Br)cc4)cc3)cc2)C(=O)c2ccc(Br)cc2)cc1 [Compound 36]	UG
CCOC(=O)CNC(=O)CN(CCNC(=O)OC(C)(C)C)C(=O)Cc1ccc2ccccc2c1 [Compound 33]	P
COc1ccc(CN(CC(=O)NCS(=O)(=O)c2ccc(C)cc2)C(=O)c2ccc(Br)cc2)cc1 [Compound 35]	G
CCOC(=O)CNC(=O)CN(C(=O)c1ccc(Br)cc1)C1C(OCC)OC2COC(c3ccccc3)OC2C1O (stereo not shown) [Compound 32]	G
O=C(CN(C(=O)c1ccccc1)c1ccccc1)NC1CCCCC1 [Compound 39]	P
CCOC(=O)CNC(=O)CN(Cc1ccc(OC)cc1)C(=O)CCC(=O)NC1C(OC)OC2COC(c3ccccc3)OC2C1O (stereo not shown) [Compound 34]	G
COC1OC2COC(c3ccccc3)OC2C(O)C1N(CC(=O)NC1CCCCC1)C(C)=O (stereo not shown) [Compound 31]	G
